System: Bletilla striata
Test: Growth and bulb formation of Bletilla striata seedlings in tissue culture
Type: in vivo
Conditions: sugar 0.02% in medium
Protocol: Seedling plants of Bletilla striata obtained by sterile sowing were used in an experiment. As for the Bletilla striata, by using ½ strength MS medium supplemented with D-psicose, D-allose, D-glucose or D-frucose at a concentration of from 0.005% to 0.05% (w/v), the seedling plants were aseptically transplanted on Feb. 27, 2003, and then, cultivation was carried out under the same conditions as those of the strawberry in Example 3. Then, on Jun. […]
RECORDED_ENDPOINT: Underground part weight (g)
Answer in g, number only, no unit symbol.

These recorded examples may help you get a feel for the data.
| COMPOUND | UNIT_OF_MEASUREMENT | Underground part weight |
| --- | --- | --- |
| O=C[C@H](O)[C@@H](O)[C@H](O)[C@H](O)CO [D-glucose, reference compound] | g | 0.18 |
| O=C(CO)[C@H](O)[C@H](O)[C@H](O)CO | g | 0.22 |
| O=C(CO)[C@@H](O)[C@H](O)[C@H](O)CO [D-fructose, reference compound] | g | 0.14 |

Now for a further compound.
Lab note: need Underground part weight for O=C[C@H](O)[C@H](O)[C@H](O)[C@H](O)CO on Bletilla striata, anyone have it? 0.12

---

tested on: Bletilla striata; experiment: Growth and bulb formation of Bletilla striata seedlings in tissue culture; format: in vivo; conditions: sugar 0.005% in medium
RECORDED_ENDPOINT: Maximum plant length (cm)
Answer in cm, number only, no unit symbol.

These recorded examples may help you get a feel for the data.
| COMPOUND | Maximum plant length / cm |
| --- | --- |
| O=C[C@H](O)[C@@H](O)[C@H](O)[C@H](O)CO [D-glucose, reference compound] | 7.3 |
| O=C[C@H](O)[C@H](O)[C@H](O)[C@H](O)CO | 7.6 |
| O=C(CO)[C@@H](O)[C@H](O)[C@H](O)CO [D-fructose, reference compound] | 6.5 |

Fill in the blank: the reported Maximum plant length of O=C(CO)[C@H](O)[C@H](O)[C@H](O)CO is ____. 9.3

---

tested on: Brassica rapa var. amplexicaulis (variety: “Haru Ichiban”); assay: Foliar spraying of sugar on Brassica rapa var. amplexicaulis; format: in vivo; details: 0.5% solution sprayed; control (water) 235.3
RECORDED_ENDPOINT: Total weight of lateral buds (g)
Answer in g, number only, no unit symbol.

These recorded examples may help you get a feel for the data.
| COMPOUND | UNIT_OF_MEASUREMENT | Total weight of lateral buds |
| --- | --- | --- |
| O=C(CO)[C@@H](O)[C@H](O)[C@H](O)CO [D-fructose, reference compound] | g | 231.1 |
| O=C[C@@H](O)[C@H](O)[C@H](O)[C@@H](O)CO | g | 250.6 |
| O=C[C@H](O)[C@@H](O)[C@H](O)[C@H](O)CO [D-glucose, reference compound] | g | 198.1 |
| O=C(CO)[C@H](O)[C@H](O)[C@H](O)CO | g | 225.0 |

Now for a further compound.
Fill in the blank: the reported Total weight of lateral buds of O=C[C@H](O)[C@H](O)[C@H](O)[C@H](O)CO is ____. 222.5
